Data credit: PubChem BioAssay (NCI)

# maps each entry to its TGI
System: OVCAR-3 ovarian
Assay: NCI tumour cell line growth inhibition, 48 h

Molecule	TGI
CCCCN1CCC(O)(c2cc(C(=O)O)[nH]c2-c2cc(C)no2)C1=O (stereo not drawn)	> 100 µM
COC(=O)[C@H](Cc1cn(C)cn1)NC(=O)[C@@H](NC(=O)Nc1cc(C(F)(F)F)cc(C(F)(F)F)c1)C(C)(C)C	> 10 µM
O=C(NNC(=O)c1c(Cl)c(Cl)c(Cl)c(Cl)c1-c1nc2ccccc2[nH]1)c1ccc(Cl)cc1	> 100 µM
CCOC(OCC)[C@H](N)[C@@H](O)[C@@H](O)[C@H]1COC(C)(C)O1	> 100 µM
COc1ccc2c(c1)C(=O)[C@@](Nc1ccc(C=O)cc1)(OC)[C@@](OC)(c1ccc([N+](=O)[O-])cc1)O2	> 10 µM
O=C(Nc1nccs1)NS(=O)(=O)n1cnc2ccccc21	> 100 µM
COc1ccc(NC(=S)Nc2c(C)n(C)n(-c3ccccc3)c2=O)cc1	> 100 µM
COc1ccc(-c2cc(-c3ccc(Cl)cc3)nc(SCCCCCCC(=O)NO)n2)cc1	6.85 µM
CC1(C)/C(=N\Nc2ccc([N+](=O)[O-])cc2[N+](=O)[O-])C2CCC1C2 (stereo not drawn)	> 100 µM
COc1ccc(NC(=O)CC(=O)N2N=C(C)C(N=Nc3ccc(C(=O)O)cc3)C2=O)cc1 (stereo not drawn)	> 100 µM
CCOC(=O)c1csc(-c2nc(CCNC(=O)c3ccccc3)sc2Cl)n1	> 100 µM
COc1ccc2c(c1)OC1c3ccccc3OCC21 (stereo not drawn)	> 100 µM
CCOc1cc(/C=C2\N=C(c3ccccc3)N(c3nc4ccccc4s3)C2=O)ccc1O	> 100 µM
CC1(C)CN=C(Nc2ccc(F)c(Cl)c2)S1	> 100 µM
CCOC(=O)C1=C(C)N(C2OC(COC(C)=O)C(OC(C)=O)C(OC(C)=O)C2OC(C)=O)C(=O)NC1c1ccccc1 (stereo not drawn)	> 100 µM
Cc1ccc(N2C3=C(CC4=C2CC(C)(C)CC4=O)C(=O)CC(C)(C)C3)cc1	> 100 µM
CCCCCC(=C/c1ccccc1)/C=N/N=C(N)N	2.56 µM
COCC(=O)NC/C=C/c1ccc2ncnc(Nc3ccc(Oc4ccc(C)nc4)c(C)c3)c2c1	28 µM
COc1ccc2c(c1)C=C(C(C)(C)C)NS2(=O)=O	> 100 µM
N.N.NCCCCCN.O=C([O-])CC(=O)[O-].O=C([O-])CC(=O)[O-].[Pt+4].[Pt+4]	> 100 µM
CCOc1ncnc2ccc(Cl)c(I)c12	> 100 µM
C=CC(C)(C)n1cc(C2=C(O)C(=O)C(c3c(CC=C(C)C)[nH]c4ccccc34)=C(O)C2=O)c2ccccc21	3.05 µM
NC(Cc1c[nH]c2cc(F)ccc12)C(=O)O (stereo not drawn)	> 2500 µM
Cc1nc(-n2nc(-c3ccccc3)cc2-c2ccccc2)sc1C(=O)/C=C/c1ccc(Cl)cc1	35.6 µM
CC(C)C1NC(=O)[C@H](C)OC(=O)[C@@H](C(C)C)NC(=O)[C@@H](C)OC(=O)C(C(C)C)NC(=O)[C@H](C)OC1=O (stereo partly drawn)	> 100 µM
S=C1SCN(C2CCCCCCCCCCC2)CN1C1CCCCCCCCCCC1	> 100 µM
COc1cc(OC)cc(C(=O)Cc2c(C(=O)c3ccccc3)c3ccccc3n2C(=O)c2ccccc2)c1	> 100 µM
C=CCOC1OC(CS(=O)(=O)O)C(OC(C)=O)C(OC(C)=O)C1OC(C)=O (stereo not drawn)	> 100 µM
CC(C)=CCc1c(O)c(C(=O)CC(C)C)c(O)c2c(-c3ccccc3)cc(=O)oc12	> 50 µM
CCCCCCC/C=C1\CCC(CN(C)C)C1=O (stereo not drawn)	18 µM
CC(C)c1cc(C(=O)[O-])c(O)c(C(C)C)c1.CC(C)c1cc(C(=O)[O-])c(O)c(C(C)C)c1.CC(C)c1cc(C(=O)[O-])c(O)c(C(C)C)c1.CC(C)c1cc(C(=O)[O-])c(O)c(C(C)C)c1.CC(C)c1cc(C(=O)[O-])c(O)c(C(C)C)c1.CC(C)c1cc(C(=O)[O-])c(O)c(C(C)C)c1.[Cu+2].[Mn+2].[Mn+2]	10.4 µM
Cc1c(C#N)c(N)n(C2OC(CO)C(O)C(O)C2O)c(=S)c1C#N (stereo not drawn)	> 100 µM
C[C@]12CC/C(=N\O)C=C1CC[C@@H]1[C@@H]2CC[C@]2(C)C(=N/O)/C(=C/c3ccncc3)C[C@@H]12	72.3 µM
CC(=Nc1ccccc1)C1=C(O)C(Cc2ccc(F)cc2)NC1=O (stereo not drawn)	1.2 µM
CC(C)(C)C1CCC(=O)C(C(O)CC2CC(=O)N(c3ccccc3)C(=O)C2)C1 (stereo not drawn)	> 100 µM
Cc1cc(C)c(O)c(CNCCCNCc2cc(C)cc(C)c2O)c1	15 µM
CC(=O)OCc1nnn2c1CCC2	> 100 µM
COc1cc(/C=C2\Cc3ccccc3C2=O)cc(OC)c1OC	> 100 µM
